# measurementNotes: human hepatoma cell viability loss – ATP luminescence, cytotoxicity control for P. falciparum antimalarial project, primary screen (AID 2303);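 also: 0% = DMSO wells and 100% = digitonin-killed cells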
# conditionDescription: HepG2 viability, 24-48 h, at 10 µM, stronger effect = higher value
What inhibition was measured for each of the following?
Numbers only, in %.

Sample records with inhibition:
compound | inhibition [%]
COc1ccc(/C=C/c2ccc(-c3c(C)[nH]c(C)c(Cl)c3=O)cc2)cc1OC | 12
COc1ccc(-c2nc3ccc(C)nc3nc2-c2ccc(OC)cc2)cc1 | 4
COc1ccc2nc(-c3cc(-c4ccc(NC(=O)CN5CCOCC5)cc4)cnc3N)[nH]c2c1 | 52
c1cc(-c2ccc(CN3CCN(c4ccncc4)CC3)cc2)cc(-c2nc3ccccc3[nH]2)c1 | 61

Working through the 8 compounds below one at a time, give inhibition for each.
1. CSc1ccc(CN2CCC(NC(=O)c3ccc(-c4ccc(N(C)C)cc4)s3)CC2)cc1
2. CCOc1ccc2nc3cc(NC(=O)c4ccco4)ccc3c(N)c2c1
3. O=c1cc(NCCCNCc2scc3c(Cl)cc(C(F)(F)F)nc23)[nH]c2ccccc12
4. CCC(C)NS(=O)(=O)c1ccc2nc(Nc3ccc(C)c(Cl)c3)n(C(C)C(C)C)c2c1 (stereo not given)
5. Cc1cc(N[C@@H](CC(C)C)C(=O)NCCOc2ccccc2)nc(NCCc2ccccc2)n1
6. CCOC(=O)c1ccc(-c2cnoc2-c2cc(CC)c(OC)cc2O)o1
7. CC(=O)N(C)c1cccc(C(=O)Nc2ccc(-c3cccc(-c4nc5c(C)cccc5[nH]4)c3)cc2)c1
8. COc1ccc2nccc([C@@H](O)CN3CCC(NCc4ccc5c(c4)sc(=O)n5C)CC3)c2c1

[30, 36, 9, 22, 13, 12, 86, 10]
